assay_system: UCHL1 (Homo sapiens)
run_description: Ub-Rhodamine (Ubiquitin rhodamine cleavage) assay
Type: biochemical
recorded_conditions: compound 100000 nM; 1 h preincubation; read-out: UCHL1 activity, data point mean
metric: remaining activity at 100 µM (%)
Numeric answer only, unit % assumed.

Recorded remaining activity at 100 µM for C#CCCCNC(=O)[C@@H]1CCN(C#N)C1 [GK16R] , please?
80.5

Recorded remaining activity at 100 µM for C#CCCCNC(=O)c1ccc(-n2cnc(NC(=O)[C@H]3CCNC3)c2)cc1 [GK12S] , please?
101

Recorded remaining activity at 100 µM for C#CCCCNC(=O)[C@H]1CCN(C#N)C1 [GK16S] , please?
68.2

Recorded remaining activity at 100 µM for C#CCCCNC(=O)c1ccc(-n2cnc(NC(=O)[C@@H]3CCNC3)c2)cc1 [GK12R] , please?
99.1

###

Would you kindly list IC50 for each of these compounds?
assay_system: UniProt P09936
Sequence (P09936 1-223): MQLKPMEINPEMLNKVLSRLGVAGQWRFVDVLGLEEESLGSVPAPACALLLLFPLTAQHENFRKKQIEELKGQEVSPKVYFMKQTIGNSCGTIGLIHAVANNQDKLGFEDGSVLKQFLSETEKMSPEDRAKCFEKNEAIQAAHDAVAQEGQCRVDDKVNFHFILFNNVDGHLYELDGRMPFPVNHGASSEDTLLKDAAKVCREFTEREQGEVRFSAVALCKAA
run_description: Ub-Rhodamine (Ubiquitin rhodamine cleavage) assay
Assay type: biochemical
recorded_conditions: 1 h preincubation; read-out: IC50 (UCHL1)

Recorded IC50 for C#CCCCNC(=O)[C@H]1CCN(C#N)C1 [GK16S] , please?
> 100 µM

Recorded IC50 for C#CCCCNC(=O)c1ccc(-n2cnc(NC(=O)[C@H]3CCNC3)c2)cc1 [GK12S] , please?
> 100 µM

Recorded IC50 for C#CCCCNC(=O)[C@@H]1CCN(C#N)C1 [GK16R] , please?
> 100 µM

Recorded IC50 for C#CCCCNC(=O)c1ccc(-n2cnc(NC(=O)[C@@H]3CCNC3)c2)cc1 [GK12R] , please?
> 100 µM

Recorded IC50 for C#CCCCNC(=O)c1ccc(-n2cnc(NC(=O)[C@@H]3CCN(C#N)C3)c2)cc1 [GK13R] , please?
2 µM

###

assay_system: UCHL1 (Homo sapiens, UniProt P09936)
Sequence (P09936 1-223): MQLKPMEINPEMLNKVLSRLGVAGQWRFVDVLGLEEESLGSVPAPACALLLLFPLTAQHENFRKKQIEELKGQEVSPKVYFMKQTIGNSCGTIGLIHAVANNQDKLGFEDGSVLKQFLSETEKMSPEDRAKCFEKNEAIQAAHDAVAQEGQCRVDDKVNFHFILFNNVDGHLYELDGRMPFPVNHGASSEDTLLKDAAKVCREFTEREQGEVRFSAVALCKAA
run_description: Ub-Rhodamine (Ubiquitin rhodamine cleavage) assay
Type: biochemical
recorded_conditions: compound 4.53618 nM; 1 h preincubation; read-out: UCHL1 activity, data point mean
Would you kindly list remaining activity at 0.00453618 µM for each of these compounds?
Numeric answer only, unit % assumed.

Test system UCHL1 (Homo sapiens, UniProt P09936); read-out remaining activity at 0.00453618 µM; what value for C#CCCCNC(=O)c1ccc(-n2cnc(NC(=O)[C@H]3CCNC3)c2)cc1 [GK12S] ?
90.7

Test system UCHL1 (Homo sapiens, UniProt P09936); read-out remaining activity at 0.00453618 µM; what value for C#CCCCNC(=O)c1ccc(-n2cnc(NC(=O)[C@@H]3CCNC3)c2)cc1 [GK12R] ?
98

Test system UCHL1 (Homo sapiens, UniProt P09936); read-out remaining activity at 0.00453618 µM; what value for C#CCCCNC(=O)[C@H]1CCN(C#N)C1 [GK16S] ?
99.1

Test system UCHL1 (Homo sapiens, UniProt P09936); read-out remaining activity at 0.00453618 µM; what value for C#CCCCNC(=O)[C@@H]1CCN(C#N)C1 [GK16R] ?
89.6

###

assay_system: UCHL1 (Homo sapiens, UniProt P09936)
run_description: Ub-Rhodamine (Ubiquitin rhodamine cleavage) assay
Assay type: biochemical
recorded_conditions: 1 h preincubation; mean ± SD of independent experiments; read-out: IC50 (UCHL1)
Would you kindly list IC50 for each of these molecules?
Numeric answer only, unit nM assumed.

Recorded IC50 for C#CCCCNC(=O)c1ccc(-n2cnc(NC(=O)[C@H]3CCN(C#N)C3)c2)cc1 [GK13S] , please?
50

Recorded IC50 for `C#CCn1ccc2c(-c3cccc4c3CCN4C(=O)[C@@H]3CCCN3C#N)ccnc21` , please?
43

Recorded IC50 for N#CN1CCC[C@H]1C(=O)N1CCc2c(-c3ccnc4[nH]ccc34)cccc21 [Cpd117, reference compound] , please?
9

Recorded IC50 for C#CCCCNC(=O)c1ccc(-n2cnc(NC(=O)[C@@H]3CCN(C#N)C3)c2)cc1 [GK13R] , please?
2090

###

assay_system: UCHL3 (Homo sapiens)
Sequence (P15374 whole entry): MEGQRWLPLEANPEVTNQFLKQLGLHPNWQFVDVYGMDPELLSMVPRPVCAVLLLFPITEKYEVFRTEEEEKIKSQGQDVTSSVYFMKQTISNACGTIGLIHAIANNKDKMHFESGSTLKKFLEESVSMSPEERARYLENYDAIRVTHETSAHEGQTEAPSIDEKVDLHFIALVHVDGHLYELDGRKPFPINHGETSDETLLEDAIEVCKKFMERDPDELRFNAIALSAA
run_description: Ub-Rhodamine (Ubiquitin rhodamine cleavage) assay
Assay type: biochemical
recorded_conditions: Supplementary Fig. 10c; 3 independent experiments; read-out: IC50 (UCHL3 wt)
metric: IC50

Recorded IC50 for C#CCCCNC(=O)c1ccc(-n2cnc(NC(=O)[C@H]3CCN(C#N)C3)c2)cc1 [GK13S] , please?
> 100 µM

###

Would you kindly list remaining activity at 0.00050402 µM for each of these compounds?
assay_system: UCHL1 (Homo sapiens)
run_description: Ub-Rhodamine (Ubiquitin rhodamine cleavage) assay
Format: biochemical
recorded_conditions: compound 0.50402 nM; 1 h preincubation; read-out: UCHL1 activity, data point mean
The answer should read as a number with its unit following.

Test system UCHL1 (Homo sapiens); read-out remaining activity at 0.00050402 µM; what value for C#CCCCNC(=O)[C@H]1CCN(C#N)C1 [GK16S] ?
90.8%

Test system UCHL1 (Homo sapiens); read-out remaining activity at 0.00050402 µM; what value for C#CCCCNC(=O)[C@@H]1CCN(C#N)C1 [GK16R] ?
91.8%

Test system UCHL1 (Homo sapiens); read-out remaining activity at 0.00050402 µM; what value for C#CCCCNC(=O)c1ccc(-n2cnc(NC(=O)[C@@H]3CCNC3)c2)cc1 [GK12R] ?
95.8%

Test system UCHL1 (Homo sapiens); read-out remaining activity at 0.00050402 µM; what value for C#CCCCNC(=O)c1ccc(-n2cnc(NC(=O)[C@H]3CCNC3)c2)cc1 [GK12S] ?
91.5%

###

assay_system: UCHL3 A11I+L168F (Homo sapiens, UniProt P15374, A11I/L168F)
Sequence (P15374 whole entry A11I/L168F): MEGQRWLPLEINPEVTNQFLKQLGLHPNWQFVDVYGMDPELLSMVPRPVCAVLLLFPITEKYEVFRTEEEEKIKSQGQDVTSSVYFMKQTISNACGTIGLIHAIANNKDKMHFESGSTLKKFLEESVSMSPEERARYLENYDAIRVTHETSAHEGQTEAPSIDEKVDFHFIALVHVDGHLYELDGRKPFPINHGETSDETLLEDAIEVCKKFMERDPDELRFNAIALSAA
run_description: Ub-Rhodamine (Ubiquitin rhodamine cleavage) assay
Format: biochemical
metric: IC50 (µM)
Numeric answer only, unit µM assumed.

Recorded IC50 for C#CCCCNC(=O)c1ccc(-n2cnc(NC(=O)[C@H]3CCN(C#N)C3)c2)cc1 [GK13S] , please?
11

###

assay_system: UCHL3 A11I (Homo sapiens, UniProt P15374, A11I)
Sequence (P15374 whole entry A11I): as the sequence (P15374 whole entry A11I/L168F) above, with F168L counted along it
run_description: Ub-Rhodamine (Ubiquitin rhodamine cleavage) assay
Type: biochemical
recorded_conditions: Supplementary Fig. 10d; 5 mM DTT in buffer H; read-out: IC50 (UCHL3 A11I)
metric: IC50 (µM)
Numeric answer only, unit µM assumed.

Test system UCHL3 A11I (Homo sapiens, UniProt P15374, A11I); read-out IC50; what value for NC(=O)CI [IAA, iodoacetamide, reference compound] ?
1900
